system: MOLT-4 leukemia; assay: NCI-60 one-dose screen, 48 h; conditions: 10 µM unless noted
About 83,000 compounds went through this panel and 20% of them were active in at least one assay; those are over-represented in the sample as a whole. Calls of active or inactive are those of the source. How the source made its calls: active means growth percent below 10; inactive means the rest.
Pick from active, inactive when you respond.

INPUT: // param item: CCN(CC)CCOc1ccc(/C(=C(\C)Cc2ccc(OC)cc2)c2ccc(OC(=O)NCc3ccccc3)cc2)cc1 ; yields the recorded call
OUTPUT: active

INPUT: // param item: Cc1cc(N2CCN(CC(=O)Nc3ccc4c(ccn4Cc4ccccc4)c3)CC2)nc(N2CCOCC2)n1 ; yields the recorded call
OUTPUT: inactive

INPUT: // param item: O=c1oc2c(cc1-c1ccccc1)c[n+]([O-])c1ccccc21 ; yields the recorded call
OUTPUT: inactive

INPUT: // param item: O=C(Nc1cccnc1Nc1ccccc1)c1cn(Cc2cccc(Oc3ccccc3)c2)nn1 ; yields the recorded call
OUTPUT: inactive

INPUT: // param item: C#CCOc1cccc(Nc2ncnc3cc(NC(=O)CCl)ccc23)c1 ; yields the recorded call
OUTPUT: active

INPUT: // param item: CCN1CCN(CCNc2nccc(-c3c(-c4ccc(F)c(O)c4)nc4occn34)n2)S1(=O)=O ; yields the recorded call
OUTPUT: active

INPUT: // param item: COC(=O)c1c2c(c[n+]([O-])c1C)C(=O)C=C(NCc1ccccc1)C2=O ; yields the recorded call
OUTPUT: active

INPUT: // param item: Oc1nc(NCc2ccccc2)sc1/C=C1\C=Nc2ncccc21 ; yields the recorded call
OUTPUT: inactive

INPUT: // param item: O=C(/C=C/c1cccc(Oc2ccccc2)c1)c1ccc(Nc2nc(Nc3ccc(F)cc3)nc(Nc3ccc(Cl)cc3)n2)cc1 ; yields the recorded call
OUTPUT: active

INPUT: // param item: CC(C)(C)CC(C)(C)Nc1c(-c2c(O)c3ccccc3oc2=O)nc2sc3ccccc3n12 ; yields the recorded call
OUTPUT: inactive

INPUT: // param item: CC[C@@H](C(=O)[C@@H](C)[C@@H](O)[C@H](C)[C@@H]1O[C@@H]([C@@H](CC)C(=O)ONC(=O)c2ccccc2O)CC[C@@H]1C)C1O[C@]2(C=CC(=O)[C@]3(CC[C@@](C)([C@H]4CC[C@](O)(CC)[C@H](C)O4)O3)O2)[C@H](C)C[C@@H]1C (stereo partly drawn) ; yields the recorded call
OUTPUT: inactive

INPUT: // param item: N=C(N)c1ccc(OCCSCCOc2ccc(C(=N)N)cc2)cc1 ; yields the recorded call
OUTPUT: inactive

INPUT: // param item: Clc1cccc(C2Cc3cnccc3-c3[nH]c4ccncc4c32)c1 (stereo not drawn) ; yields the recorded call
OUTPUT: active

INPUT: // param item: Oc1ccc(-c2nc3ccc4[nH]ncc4c3c3c2CCCC3)c(F)c1 ; yields the recorded call
OUTPUT: active

INPUT: // param item: CCOc1ncc([N+](=O)[O-])c(OCC)n1 ; yields the recorded call
OUTPUT: inactive

INPUT: // param item: O=C(C[C@]1(O)C(=O)Nc2ccc(Br)cc21)c1ccco1 ; yields the recorded call
OUTPUT: inactive

INPUT: // param item: C=C1C(=O)O[C@H]2[C@H]1CC/C(CNC(=O)Cc1c[nH]c3ccccc13)=C\CC[C@@]1(C)O[C@@H]21 ; yields the recorded call
OUTPUT: active

INPUT: // param item: Cc1oc(-c2ccc(Cl)cc2)nc1C1=NN(C(=O)c2ccncc2)C(c2ccccc2)C1 (stereo not drawn) ; yields the recorded call
OUTPUT: inactive

INPUT: // param item: C[N+]1=C(/C=C/c2ccccc2Cl)C(C)(C)c2ccccc21 ; yields the recorded call
OUTPUT: inactive

INPUT: // param item: O=Nc1ccc(NC(=O)Nc2ccc([N+](=O)[O-])cc2)cc1 ; yields the recorded call
OUTPUT: inactive

INPUT: // param item: CCN(CC)CCOc1ccc(Nc2ncc3cc(-c4c(Cl)cccc4Cl)c(=O)n(CCOC)c3n2)cc1 ; yields the recorded call
OUTPUT: active

INPUT: // param item: O=C(/C=C/C12c3ccccc3C(c3ccccc31)C1C(=O)NC(=O)C12)c1ccco1 (stereo not drawn) ; yields the recorded call
OUTPUT: active

INPUT: // param item: C#CCOc1cccc(Nc2ncnc3c2ncn3C2CCN(C(=O)CCl)C2)c1 (stereo not drawn) ; yields the recorded call
OUTPUT: active

INPUT: // param item: Nc1c(C(=O)Nc2cccc3ncccc23)sc2nc3c(cc12)CN(Cc1ccccc1)CC3 ; yields the recorded call
OUTPUT: inactive

INPUT: // param item: O=C(Oc1ccc2c(c1)sc1nc(-c3ccccc3)[nH]c(=O)c12)C(F)(F)F ; yields the recorded call
OUTPUT: inactive

INPUT: // param item: Nc1ncnc2c1N=C(c1ccc(Cl)cc1)CC(c1cccc(Nc3ccnc4cc(Cl)ccc34)c1)N2 (stereo not drawn) ; yields the recorded call
OUTPUT: inactive

INPUT: // param item: O=C(/C=C/c1cn(-c2ccccc2)nc1-c1ccccc1)CCC(=O)NO ; yields the recorded call
OUTPUT: inactive

INPUT: // param item: CCn1cc(C(=O)N/N=C/c2ccccc2)c(=O)c2cc(F)c(N3CCNC(C)C3)c(F)c21 (stereo not drawn) ; yields the recorded call
OUTPUT: active

INPUT: // param item: CCC(C)(C)c1ccc(Nc2ccc(Nc3ccc(C(C)(C)CC)cc3)cc2)cc1 ; yields the recorded call
OUTPUT: inactive

INPUT: // param item: COc1ccc(C2[C@@H](Cl)C(=O)N2c2cc(OC)c(OC)c(OC)c2)cc1Cl (stereo partly drawn) ; yields the recorded call
OUTPUT: inactive

INPUT: // param item: CC(=O)N1N=C(c2ccc(Nc3nc(Nc4ccc(F)cc4)nc(Nc4ccc(F)cc4)n3)cc2)CC1c1ccc(N(C)C)cc1 (stereo not drawn) ; yields the recorded call
OUTPUT: inactive

INPUT: // param item: CC1(C)CC[C@]23CC[C@]4(C)[C@H](CC[C@@H]5[C@@]6(C)CCNCC(C)(C)[C@@H]6CC[C@]54C)[C@H]2[C@H]1OC3 ; yields the recorded call
OUTPUT: inactive

INPUT: // param item: C=CC(=O)Nc1cccc(Oc2nccc(Nc3nnc(-c4ccc(Br)cc4)s3)n2)c1 ; yields the recorded call
OUTPUT: inactive

Value source: PubChem BioAssay (NCI)
